Test system: oxidation of DCFH to DCF
Assay: Measurement of intracellular oxidative stress (DCFH-DA fluorescence)
Assay type: cell-based
Details: 0.5 h, concentration blocking oxidation of DCFH to DCF by 50%, 30.0-µM IAA, 30 minutes, read from Figure 1
metric.name: EC50 (µM)

molecule="Cc1c(C)c2c(c(C)c1O)CC(CCOC(=O)CCn1ccc(=O)c(O)c1C)O2 (stereo not shown) [Example 10]" readout_units=µM data_value=0.8
